Would you kindly list viability for each of these molecules?
measurement.notes: reversal of MRP1-mediated doxorubicin resistance, pilot screen, H69AR cells, doxorubicin co-treatment (AID 601)
setup.conditions: H69AR cells + 2 uM doxorubicin, CellTiter-Glo, 72 h; measured here: viability with 2 uM doxorubicin; at 10 µM; stronger effect = lower value
Numbers only, in %.

Example entries and their recorded answers appear below.
{"molecular.string": "COc1ccc(S(=O)(=O)N2CCN(CC(=O)Nc3ccc(F)c(F)c3)CC2)cc1", "measurement.name": "viability", "numeric.result": 93.9}
{"molecular.string": "CCOc1ncccc1C(=O)OCC(=O)Nc1ncc(C(F)(F)F)cc1Cl", "measurement.name": "viability", "numeric.result": 94.3}
{"molecular.string": "CCOC(=O)c1c(-c2ccc(C)o2)csc1NC(=O)COC(=O)c1cccs1", "measurement.name": "viability", "numeric.result": 79.2}

Your task in this section: give viability for each listed record.
1. O=C(NCc1cccnc1)c1ccc2c(c1)OCO2
2. COc1ccccc1C(=O)Nc1ccc(N2CCN(S(C)(=O)=O)CC2)cc1
3. CCOc1ccc(Nc2nc(Cc3nnc(SCC(N)=O)o3)cs2)cc1

A)
1. 107
2. 84.5
3. 80.4

====

measurement.notes: reversal of MRP1-mediated doxorubicin resistance, pilot screen, H69AR cells, doxorubicin co-treatment (AID 601)
setup.conditions: H69AR cells, CellTiter-Glo, 72 h; compound alone cytotoxicity; at 10 µM
measurement.name: viability (%)
Numbers only, in %.

Example entries and their recorded answers appear below.
{"compound": "CC(C)C1Cc2c(C#N)c(N)sc(=S)c2CO1 (stereo not given)", "units.symbol": "%", "viability": 93.9}
{"compound": "COc1ccc(S(=O)(=O)N2CCN(C3CCCCCCC3)CC2)cc1", "units.symbol": "%", "viability": 93.9}
{"compound": "COc1ccc(S(=O)(=O)N(C)CC(=O)N2CCCCC2)cc1Cl", "units.symbol": "%", "viability": 93.5}
{"compound": "COc1ccc(N2CCN(C(=O)C(OC(C)=O)c3ccccc3)CC2)cc1 (stereo not given)", "units.symbol": "%", "viability": 97}

Your task in this section: give viability for each listed record.
1. CCCn1c(NCc2ccc3c(c2)OCO3)nc2ccccc21
2. CCNCCNC(=O)c1c(O)c2ccccc2n(CC)c1=O
3. Cc1ccc(-c2cc(C(=O)NCCN3CCOCC3)no2)cc1
4. Cc1occc1C(=O)Nc1ccccc1NC(=O)c1ccoc1C
5. COC(=O)C1=C(C)NC(=O)C1(Nc1ccc(Cl)cn1)C(F)(F)F (stereo not given)

A)
1: 97.2; 2: 89.1; 3: 99.8; 4: 100; 5: 96.5

====

measurement.notes: reversal of MRP1-mediated doxorubicin resistance, pilot screen, H69AR cells, doxorubicin co-treatment (AID 601)
setup.conditions: H69AR cells + 2 uM doxorubicin, CellTiter-Glo, 72 h; at 10 µM; stronger effect = higher value
Would you kindly list differential viability (reversal) for each of these compounds?
Give bare numbers, in %.

Example entries and their recorded answers appear below.
{"compound": "CCOC(=O)c1ccc(COC(=O)CCc2nc3ccccc3[nH]c2=O)o1", "differential viability (reversal) / %": -4.18}
{"compound": "Cn1c(=O)[nH]c(=O)c2[nH]c(NCCCN3CCOCC3)nc21", "differential viability (reversal) / %": 16.1}

Your task in this section: give differential viability (reversal) for each listed record.
1. CCC(c1nnc(SCC(=O)NCC2CCCO2)n1Cc1ccccc1)N(C)C (stereo unspecified)
2. COc1ccc(CN(CC(=O)NCC2CCCO2)C(=O)CNS(=O)(=O)c2ccc(C)cc2)cc1 (stereo unspecified)
3. CN(Cc1cccs1)CC(O)COCc1ccco1 (stereo unspecified)
4. Cc1cc(C)n2nc3nc(N4CCCCC4)nc(-c4ccco4)c3c2n1
5. COc1ccc(C2=NOC(C(=O)NCCCN3CCOCC3)C2)cc1 (stereo unspecified)
6. O=C(Cn1nc(C(F)(F)F)c2c1CCCC2)NCCN1CCOCC1
7. O=C(CSc1nc(-c2ccccc2)cs1)NC(=O)NCc1ccco1
8. O=C(CNS(=O)(=O)c1ccc(Br)s1)N1CCCC1

A)
5.86
2.2
-3.35
-2.63
1.06
4.05
-0.93
9.79

The compound Cc1noc(C)c1CSc1nnc(-c2ccncc2)n1-c1cccc(Cl)c1C showed differential viability (reversal) equal to 2.37

====

measurement.notes: reversal of MRP1-mediated doxorubicin resistance, pilot screen, H69AR cells, doxorubicin co-treatment (AID 601)
setup.conditions: H69AR cells + 2 uM doxorubicin, CellTiter-Glo, 72 h; measured here: viability with 2 uM doxorubicin; at 10 µM; stronger effect = lower value
measurement.name: viability (%)
One number for each entry, in %.

{"compound": "CN1CCN(S(=O)(=O)c2ccc(Sc3nnc(-c4cccs4)n3-c3ccccc3)nc2)CC1", "units.symbol": "%", "viability": 82.2}
{"compound": "O=C(O)c1cc(=O)cc(C(=O)O)[nH]1", "units.symbol": "%", "viability": 92.7}
{"compound": "CC1CCC(C(=O)NC(C(=O)NCCN2CCC(C)CC2)C(C)C)CC1 (stereo unspecified)", "units.symbol": "%", "viability": 87.9}
{"compound": "O=C(Nc1nc2c(s1)CCc1ccccc1-2)c1cccs1", "units.symbol": "%", "viability": 87.9}
{"compound": "O=S(=O)(c1ccc(S(=O)(=O)N2CCN3CCCC3C2)cc1)N1CCCC1 (stereo unspecified)", "units.symbol": "%", "viability": 82.8}

Alright, here's another compound for you.
The compound CC1(C)CC(=O)C(C#N)=C(NCCCO)C1 showed viability equal to 103

====

measurement.notes: reducers of endogenous Her2 protein level, primary screen, SKBR3 breast tumor cells, AlphaScreen, ATP viability (AID 461);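 further: percent of carrier control wells set as 100% viability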
setup.conditions: 18-24 h, measured here: SKBR3 viability, ATP luminescence, at 10 µM
measurement.name: viability (%)
Answers are plain numbers, in %.

Your task in this section: give viability for each listed record.
1. CCOC(=O)N1CCN(C(=O)CSc2ncnc3ccccc23)CC1
2. COC(=O)Nc1nc2c(C)cccc2s1
3. N#CC1=C(N)Oc2n[nH]c(-c3cccs3)c2C1c1cccs1 (configuration not stated)
4. Cc1ccc(S(=O)(=O)Nc2nc3ccccc3nc2NCc2ccco2)cc1
5. CCOC(=O)N1CCN(C(=O)CN2C(=O)COc3ccc(C)cc32)CC1

A)
1: 92; 2: 114; 3: 96.5; 4: 114; 5: 98

====

measurement.notes: reversal of MRP1-mediated doxorubicin resistance, pilot screen, H69AR cells, doxorubicin co-treatment (AID 601)
setup.conditions: H69AR cells, CellTiter-Glo, 72 h; compound alone cytotoxicity; at 10 µM
measurement.name: viability (%)
Numbers only, in %.

Example entries and their recorded answers appear below.
{"compound": "CC(=O)N1CCc2cc(S(=O)(=O)NCCC3=CCCCC3)ccc21", "numeric.result": 91.1}
{"compound": "COc1ccc2c(c1OC)C(=O)N(c1ccc3c(c1)CCC3)C2=O", "numeric.result": 107}
{"compound": "CC(C)CCNC(=O)NC(=O)COc1ccccc1C#N", "numeric.result": 97.1}

Your task in this section: give viability for each listed record.
1. O=C1c2ccccc2CN1CCNS(=O)(=O)c1ccc(Cl)cc1
2. CC(NC(=O)Cc1cccs1)c1ccc2c(c1)OCO2 (configuration not stated)
3. CC(=O)c1ccc(OC(=O)c2cccs2)cc1
4. CC(c1nnc(SCC(=O)Nc2sccc2C#N)n1-c1ccc(Cl)cc1)N(C)C (configuration not stated)
5. O=C(CSc1nc(-c2ccccc2)cs1)NC(=O)NCc1ccco1
6. COc1ccc(S(=O)(=O)N2CCCC2C(=O)Nc2ccc(C)cc2)cc1 (configuration not stated)
7. COc1ccc(C(N)=O)cc1N
8. CN(C(=O)c1cc2sccc2n1C)C1CCCCC1

A)
1. 88
2. 99.9
3. 105
4. 75.4
5. 76.7
6. 89.2
7. 94.6
8. 100

The compound COCCn1c(C23CC4CC(CC(C4)C2)C3)n[nH]c1=S showed viability equal to 77.2

====

Would you kindly list viability for each of these compounds?
measurement.notes: HUVEC growth inhibition – cell-based, human, primary screen (AID 575);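 further: 100% = median of untreated cell wells with 0.1% DMSO on each plate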
setup.conditions: HUVEC proliferation, CellTiter-Glo luminescence, 72 h; at 10 µM; stronger effect = lower value
Give bare numbers, in %.

Example entries and their recorded answers appear below.
{"compound": "O=C(CN(Cc1ccco1)C(=O)CNS(=O)(=O)c1ccc(Cl)cc1)NCc1ccc(F)cc1", "viability / %": 83.4}
{"compound": "COc1ccc(S(=O)(=O)N2CCCC2C(=O)Nc2ccc(C)cc2)cc1 (stereo not drawn)", "viability / %": 92.2}
{"compound": "c1cncc(-c2nnc(-c3ccco3)o2)c1", "viability / %": 86.3}
{"compound": "Cc1ccnc(NC(=O)CCC(=O)N(CC(=O)NC2CCCCC2)c2cccc(C)c2C)c1", "viability / %": 92.1}
{"compound": "COc1ccc(S(=O)(=O)N2CCN(CC(=O)Nc3ccc(F)c(F)c3)CC2)cc1", "viability / %": 75.6}

Your task in this section: give viability for each listed record.
1. Cc1cc2c(=O)n(Cc3ccco3)c(SCC(=O)NCc3ccco3)nc2s1
2. Cc1nc(N2CCC(C)CC2)c2c(C)c(C(=O)O)sc2n1
3. CCCN(CCC)S(=O)(=O)c1ccc(C(=O)Nc2nnc(-c3cccc(OC)c3)o2)cc1

A)
1. 93.7
2. 74.2
3. 8.23
